molecular target: GST-ZBTB24 zinc finger domain (UniProt O43167 294-512); assay: EMSA
Sequence (O43167 294-512): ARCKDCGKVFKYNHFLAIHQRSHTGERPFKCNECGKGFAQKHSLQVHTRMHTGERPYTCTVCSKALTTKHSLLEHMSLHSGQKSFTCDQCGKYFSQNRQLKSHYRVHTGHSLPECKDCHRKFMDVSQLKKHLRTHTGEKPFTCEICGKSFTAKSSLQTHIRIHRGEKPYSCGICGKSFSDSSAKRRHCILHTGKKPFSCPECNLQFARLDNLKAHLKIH

- binder: "CDCA7 outside promoter motif (dsDNA) DNA 1: GGGTGCTGGACGCAGGCGGGCGCGGGCCGACCCTCTCCAA DNA 2: TTGGAGAGGGTCGGCCCGCGCCCGCCTGCGTCCAGCACCC"
  binding result: "no binding"
- binder: "CDCA7 promoter (dsDNA) DNA 1: GGCCGTTACCACAGCTTGCAGGACCTGTGTCCCAACGCGG DNA 2: CCGCGTTGGGACACAGGTCCTGCAAGCTGTGGTAACGGCC"
  binding result: "binds"
- binder: "OSTC promoter (dsDNA) DNA 1: GTTAGAAGTCCCGCAGGTCCTTGAAGGTACACAAATCACC DNA 2: GGTGATTTGTGTACCTTCAAGGACCTGCGGGACTTCTAAC"
  binding result: "binds"
- binder: "GAPDH promoter (dsDNA) DNA 1: GAGCCTGGCGGGAGGCGGGGTCCGAGTCACCGCCTGCCGC DNA 2: GCGGCAGGCGGTGACTCGGACCCCGCCTCCCGCCAGGCTC"
  binding result: "no binding"
